The substances listed here are annotated with their MICac.
test system: P. aeruginosa LMG 6395; conditions: MIC of vancomycin in combination with the GNP at the MICbc concentration
No end group written: not given here.
metricName: MICac (µM)

| substance | unitsLabel | observedResult |
| --- | --- | --- |
| KIVQRIKKWLR-NH2 [GNP8-2] | µM | 16 |
| AIVQRIKKWLR-NH2 [GNP8-3] | µM | 4 |
| RIVQRIKKWL-NH2 [GNP8-1] | µM | 16 |
| RIRKRIKKWLR-NH2 [GNP8-4] | µM | 4 |
| RIKRRIKKWLR-NH2 [GNP8-5] | µM | 16 |
